protocolNotes: Hepatic clearance in CD-1 mouse liver microsomes at 1 uM after 20 to 60 mins by LC-MS/MS analysis
Format: ADME, Microsome
measuredEndpoint: CLhep predicted at 1 µM (mL/min/kg)

O=C(NCc1cccnc1)Nc1ccc(S(=O)(=O)N[C@H]2CCC[C@H](O)C2)cc1; 61
CC1CNCCN(S(=O)(=O)c2ccc(NC(=O)NCc3cccnc3)cc2)C1 (racemic); 48
Nc1ccc(CNC(=O)Nc2ccc(S(=O)(=O)c3ccccc3)cc2)cn1; 42

[P] N[C@H]1CC[C@H](NS(=O)(=O)c2ccc(NC(=O)NCc3cccnc3)cc2)CC1
[Q] C[C@@H]1CN(S(=O)(=O)c2ccc(NC(=O)NCc3cccnc3)cc2)C[C@H](C)O1
[R] O=C(NCc1cccnc1)Nc1ccc(S(=O)(=O)N2CCC3(CCNC3)CC2)cc1
Enquiry: # rank_down: sort by CLhep predicted at 1 µM, max first A ranking is expressed here by listing the labels in the requested order.
Return: Q, R, P

====

protocolNotes: Cmax in BALB/c mouse at 5 mg/kg, po by LC/MS/MS analysis
Assay type: ADME, organism-based
Parameters: dose 5 mg/kg, route oral
condition: in vivo
measuredEndpoint: Cmax (nM)
Give the value in nM but do not write nM after it.

Enquiry: Which Cmax reading was recorded for the compound "Nc1ccc(CNC(=O)Nc2ccc(S(=O)(=O)c3ccccc3)cc2)cn1" ?
Return: 2900

====

protocolNotes: Hepatic clearance in human liver microsomes at 1 uM after 20 to 60 mins by LC-MS/MS analysis
Format: ADME, Microsome
measuredEndpoint: CLhep predicted at 1 µM (mL/min/kg)

O=C(NCc1cccnc1)Nc1ccc(S(=O)(=O)N2CCC23COC3)cc1; 8

[a] O=C(NCc1cccnc1)Nc1ccc(S(=O)(=O)N[C@@H]2CCNC[C@H]2F)cc1
[b] O=C(NCc1cncnc1)Nc1ccc(S(=O)(=O)c2ccccc2)cc1
Enquiry: Sort a and b by CLhep predicted at 1 µM descending and give the first. Write down the label attached to your selection.
Return: b
(b: 6 mL/min/kg, a: 3 mL/min/kg)

====

protocolNotes: Hepatic clearance in human liver microsomes at 1 uM after 20 to 60 mins by LC-MS/MS analysis
Type: ADME, Microsome
measuredEndpoint: CLhep predicted at 1 µM (mL/min/kg)

Please review the entries below; each comes with its answer.
O=C(NCc1cccnc1)Nc1ccc(S(=O)(=O)N2CCC3(CCCN3)CC2)cc1; 7
O=C(NCc1cccnc1)Nc1ccc(S(=O)(=O)N2CCC3(CCNC3)CC2)cc1; 4
O=C(NCc1cccnc1)Nc1ccc(S(=O)(=O)N2CCOCC2)cc1; 6
O=C(NCc1cccnc1)Nc1ccc(S(=O)(=O)N[C@H]2CC[C@H](O)CC2)cc1; 2
N[C@H]1CC[C@H](NS(=O)(=O)c2ccc(NC(=O)NCc3cccnc3)cc2)CC1; 5

[1] O=C(NCc1cccnc1)Nc1ccc(S(=O)(=O)N[C@H]2CCC[C@H](O)C2)cc1
[2] COc1ccc(CNC(=O)Nc2ccc(S(=O)(=O)c3ccccc3)cc2)cn1
[3] O=C(NCc1cccnc1)Nc1ccc(S(=O)(=O)N2CCC3(CCNCC3)C2)cc1
[4] O=C(NCc1cncc(F)c1)Nc1ccc(S(=O)(=O)c2ccccc2)cc1
Enquiry: Kindly order the items shown according to CLhep predicted at 1 µM, from the highest value down. Please express your ranking as an ordered list of the labels.
Return: 2, 4, 1, 3

[1] Nc1ccc(CNC(=O)Nc2ccc(S(=O)(=O)c3ccccc3)cc2)cn1
[2] O=C(NCc1cccnn1)Nc1ccc(S(=O)(=O)c2ccccc2)cc1
Enquiry: Given 1 and 2 , report the one with the higher recorded CLhep predicted at 1 µM. // respond with label for picked entry
Return: 1
(1: 5 mL/min/kg, 2: 3 mL/min/kg)

[I] O=C(NCc1cccnc1)Nc1ccc(S(=O)(=O)N2CCNC(C(F)(F)F)CC2)cc1 (racemic)
[II] Nc1ncc(CNC(=O)Nc2ccc(S(=O)(=O)c3ccccc3)cc2)cn1
Enquiry: Of the pair I and II , name the member with the lesser recorded CLhep predicted at 1 µM. Answer with the label corresponding to your selection.
Return: II
(II: 3 mL/min/kg, I: 18 mL/min/kg)
